# ASSAY DETAILS: Aqueous kinetic solubility assay
# Format: physicochemical
# TEST SETTINGS: Phosphate buffered saline, pH 7.4, single determination
MEASURED QUANTITY: Kinetic sol.
Please don't drop the unit; write it after the number.

>>> result("O=C(NC1CCCCC1)Oc1cccc(-c2ccccc2)c1 [Compound 1a, URB524, reference compound]")
"6 µM"
>>> result("COc1cccc(Cn2cc(CNC(=O)OCc3cn(Cc4cccc(OC)c4)nn3)nn2)c1 [Compound 34b]")
"174 µM"
>>> result("COc1cc(Cn2cc(COC(=O)NC3CCCCC3)nn2)cc(OC)c1")
"18 µM"

Now look at this entry.
Supply reported Kinetic sol. belonging to this compound: COc1ccc(Cn2cc(CNC(=O)OCc3cn(Cc4cccc(OC)c4)nn3)nn2)cc1 152 µM
